GI50 overview
# Test system: SK-MEL-28
# method_summary: NCI tumour cell line growth inhibition, 48 h
Activity calls are given as the source filed them. Rule as the data show it: active = GI50 up to about 1.1 µM and inactive = higher. Peptide text beside a SMILES is read from it. * marks the point of attachment. Boc = CC(C)(C)OC(=O)*; OBn = c1ccc(CO*)cc1

A selection of reference data follows.
| compound | readout_label | readout_value |
| --- | --- | --- |
| CC(NC(=O)C(NC(=O)OC(C)(C)C)C(C)C)C(=O)N1CCCC1C(=O)NCC(=O)NC(C(=O)NCC(=O)OCc1ccccc1)C(C)C (centres undefined) (Boc-VAPGVG-OBn; configuration not given here) | GI50 | > 100 µM (inactive) |
| COc1cc(OC)c(-c2cc(=O)c3c(OC)c(OC)c(OC)c(OC)c3o2)cc1OC | GI50 | > 100 µM (inactive) |
| C=CNC(=O)NC(=O)CSc1nc(=O)c(-c2ccccc2NC(=O)C(F)(F)F)n[nH]1 | GI50 | 66.2 µM (inactive) |

# context switch: different compound, same GI50
Returns the measured GI50 for the input compound. Input: NC(=O)c1[nH]nc(C2OC(CO)C(O)C2O)c1O (centres undefined) 328 µM (inactive)

###

# System: SF-295
# method_summary: NCI tumour cell line growth inhibition, 48 h
Activity calls are given as the source filed them. Cut-off read from the data, not from the text of the source: active = GI50 up to about 1.1 µM and inactive = higher.
GI50 overview

| compound | tested_target | GI50 |
| --- | --- | --- |
| COC(=O)CCc1cc(O)c2c(c1)C(C(=O)OC)C(c1ccc(O)c(O)c1)O2 (stereo unspecified) | SF-295 | 17.7 µM (inactive) |
| C=C(C)COc1ccc2c(c1)CCC1C2CCC2(C)C(=O)/C(=N/O)CC12 (stereo unspecified) | SF-295 | 4.37 µM (inactive) |
| CC(ON1[C@](C)(c2ccccc2)CC[C@@]1(C)c1ccccc1)c1ccccc1 (stereo partly specified) | SF-295 | 26.3 µM (inactive) |
| C=C1C(=O)OC2C1CCC(=C)C1CC(O)C(=C)C12 (stereo unspecified) | SF-295 | 38.5 µM (inactive) |
| COc1cc(/C=C\c2cccnc2)cc(OC)c1OC | SF-295 | 36.6 µM (inactive) |

# context switch: different compound, same GI50
Returns the measured GI50 for the input compound. Input: `CCNCCCCNCC` > 3750 µM (inactive)

###

# Test system: IGROV-1
# method_summary: NCI tumour cell line growth inhibition, 48 h
Activity calls are given as the source filed them. Cut-off read from the data, not from the text of the source: active = GI50 up to about 1.1 µM and inactive = higher.
Thanks in advance; please answer with one of these: active, inactive

Here's what some known entries look like.
| molecule | cat |
| --- | --- |
| [N-]=[N+]=C1N=CN=C1c1nc[nH]n1 | inactive |
| O=C(Nc1nc2ncn(CCO)c2c(=O)[nH]1)c1ccccc1 | inactive |
| C=CCOn1c(C=C)nc2ccc(C)cc21 | inactive |
| COc1ccc2c(c1)O[C@H]1c3ccc(O)cc3OC[C@@H]21 | inactive |

State the result this test recorded for `CSCCC(NC(=O)OCc1ccccc1)NC(=O)OCc1ccccc1` . inactive

State the result this test recorded for `CCN(CC)CCCNc1[nH]c2ccccc2c2nc3ccc(OC)cc3c1-2` . inactive

State the result this test recorded for `NCCCNCCS` . inactive

State the result this test recorded for O=C1NC2C(=CC(O)C(O)C2O)c2cc3c(cc21)OCO3 (stereo unspecified) . active

State the result this test recorded for `CN=C(n1ccnc1)n1ccnc1` . inactive

State the result this test recorded for `CC/C=C/C[C@H](O[Si](C)(C)C(C)(C)C)[C@H]1C[C@H]2O[C@H]([C@@H](O)C#C[Si](C)(C)C)C[C@H]2O1` . inactive

State the result this test recorded for `COc1ccc2cc(CNCCCCCCNCc3ccc4cc(OC)ccc4c3)ccc2c1` . inactive
